- Experiment Summary: Area under plasma concentration curve of the compound upon p.o. dose of 1 mg/kg in rats
- Assay type: ADME, organism-based
- Parameters: dose 1 mg/kg, route oral
- Test Conditions: rat, in vivo, po
Reported Property: AUC (ng·h/mL)
Give bare numbers, in ng·h/mL.

>  <Molecule Smiles>
CCc1cnc(NCc2ccc3oc(CCN4CCC[C@H]4C)cc3c2)nc1

>  <AUC, ng·h/mL>
18.9

$$$$
>  <Molecule Smiles>
C[C@@H]1CCCN1CCc1cc2cc(CNc3ncccn3)ccc2o1

>  <AUC, ng·h/mL>
72.1

$$$$
>  <Molecule Smiles>
C[C@@H]1CCCN1CCc1cc2cc(Nc3cncnc3)ccc2o1

>  <AUC, ng·h/mL>
0

$$$$
>  <Molecule Smiles>
CCc1cnc(Nc2ccc3oc(CCN4CCC[C@H]4C)cc3c2)nc1

>  <AUC, ng·h/mL>
103

$$$$

Next compound, please.
Param item = C[C@@H]1CCCN1CCc1cc2cc(-c3ccc(C#N)cc3)ccc2o1 ; retrieve measured AUC.
426

###

Exercise: for every item that follows, state its recorded AUC.
- Experiment Summary: Area under plasma concentration curve of the compound upon i.v. dose of 1 mg/kg in rats
- Format: ADME, organism-based
- Set-up: dose 1 mg/kg, route intravenous
- Test Conditions: rat, in vivo, iv
One number for each entry, in µg·h/mL.

>  <Molecule Smiles>
CCc1cnc(NCc2ccc3oc(CCN4CCC[C@H]4C)cc3c2)nc1

>  <Reported Property>
AUC

>  <Measured Value>
0.21

$$$$

Each molecule below has a recorded value; state its AUC.
1. C[C@@H]1CCCN1CCc1cc2cc(CNc3ncccn3)ccc2o1
2. C[C@@H]1CCCN1CCc1cc2cc(-c3ccc(C#N)cc3)ccc2o1
3. CCc1cnc(Nc2ccc3oc(CCN4CCC[C@H]4C)cc3c2)nc1

[0.351, 0.667, 0.355]

Param item = C[C@@H]1CCCN1CCc1cc2cc(Nc3cncnc3)ccc2o1 ; retrieve measured AUC.
0.0359

###

Assay system Histamine H3 receptor (Homo sapiens, UniProt Q9Y5N1); read-out recorded as pKi.
Give bare numbers, as −log10 of the molar value.

>  <Molecule Smiles>
C[C@@H]1CCCN1CCc1cc2cc(Nc3cnccn3)ccc2o1

>  <Measured Value>
9.96

$$$$
>  <Molecule Smiles>
C[C@@H]1CCCN1CCc1cc2cc(CNc3ncccc3[N+](=O)[O-])ccc2o1

>  <Measured Value>
9.37

$$$$
>  <Molecule Smiles>
C[C@@H]1CCCN1CCc1cc2cc(Nc3ccc(C#N)cc3)ccc2o1

>  <Measured Value>
9.57

$$$$
>  <Molecule Smiles>
C[C@@H]1CCCN1CCc1cc2cc(CNc3ccc(C(=O)C(F)(F)F)cc3)ccc2o1

>  <Measured Value>
9.13

$$$$
>  <Molecule Smiles>
C[C@@H]1CCCN1CCc1cc2cc(CNc3ncc(Br)cn3)ccc2o1

>  <Measured Value>
8.91

$$$$
>  <Molecule Smiles>
C[C@@H]1CCCN1CCc1cc2cc(CNc3nccnc3C#N)ccc2o1

>  <Measured Value>
8.98

$$$$

Each compound below has a recorded value; state its pKi.
1. C[C@@H]1CCCN1CCc1cc2cc(CNc3ccc([N+](=O)[O-])cc3)ccc2o1
2. CCc1cnc(NCc2ccc3oc(CCN4CCC[C@H]4C)cc3c2)nc1
3. C[C@@H]1CCCN1CCc1cc2cc(CNc3ncccn3)ccc2o1
4. C[C@@H]1CCCN1CCc1cc2cc(CNc3cccc(C#N)c3)ccc2o1
5. C[C@@H]1CCCN1CCc1cc2cc(Nc3ncccc3[N+](=O)[O-])ccc2o1
6. C[C@@H]1CCCN1CCc1cc2cc(CNc3ccc(Cl)nn3)ccc2o1

1. 9.13
2. 9.48
3. 9.08
4. 9.40
5. 9.85
6. 9.51

Param item = C[C@@H]1CCCN1CCc1cc2cc(Nc3ncccn3)ccc2o1 ; retrieve measured pKi.
9.51

###

Exercise: for every item that follows, state its recorded half-life.
- Experiment Summary: Terminal half life upon i.v. dose of 1 mg/kg in rats
- Format: ADME, organism-based
- Design: dose 1 mg/kg, route intravenous
- Test Conditions: rat, in vivo, iv
Answers are plain numbers, in h.

>  <Molecule Smiles>
CCc1cnc(Nc2ccc3oc(CCN4CCC[C@H]4C)cc3c2)nc1

>  <half-life (h)>
3.7

$$$$
>  <Molecule Smiles>
C[C@@H]1CCCN1CCc1cc2cc(CNc3ncccn3)ccc2o1

>  <half-life (h)>
1

$$$$
>  <Molecule Smiles>
C[C@@H]1CCCN1CCc1cc2cc(-c3ccc(C#N)cc3)ccc2o1

>  <half-life (h)>
5.7

$$$$
>  <Molecule Smiles>
C[C@@H]1CCCN1CCc1cc2cc(Nc3cncnc3)ccc2o1

>  <half-life (h)>
0.3

$$$$

Next molecule, please.
Param item = CCc1cnc(NCc2ccc3oc(CCN4CCC[C@H]4C)cc3c2)nc1 ; retrieve measured half-life.
1.7

###

Exercise: for every item that follows, state its recorded bioavailability.
- Experiment Summary: Oral bioavailability in rat (dose 1 mg/kg)
- Assay type: ADME, organism-based
- Test Conditions: in vivo
Give bare numbers, in %.

Look over these answered cases.
>  <Molecule Smiles>
CCc1cnc(Nc2ccc3oc(CCN4CCC[C@H]4C)cc3c2)nc1

>  <Measured Value>
29

$$$$
>  <Molecule Smiles>
C[C@@H]1CCCN1CCc1cc2cc(Nc3cncnc3)ccc2o1

>  <Measured Value>
0

$$$$
>  <Molecule Smiles>
C[C@@H]1CCCN1CCc1cc2cc(-c3ccc(C#N)cc3)ccc2o1

>  <Measured Value>
61.8

$$$$
>  <Molecule Smiles>
C[C@@H]1CCCN1CCc1cc2cc(CNc3ncccn3)ccc2o1

>  <Measured Value>
20.6

$$$$

Next compound, please.
Param item = CCc1cnc(NCc2ccc3oc(CCN4CCC[C@H]4C)cc3c2)nc1 ; retrieve measured bioavailability.
9

###

- Assayed Target: UniProt:Q9QYN8
- Sequence (Q9QYN8 whole entry): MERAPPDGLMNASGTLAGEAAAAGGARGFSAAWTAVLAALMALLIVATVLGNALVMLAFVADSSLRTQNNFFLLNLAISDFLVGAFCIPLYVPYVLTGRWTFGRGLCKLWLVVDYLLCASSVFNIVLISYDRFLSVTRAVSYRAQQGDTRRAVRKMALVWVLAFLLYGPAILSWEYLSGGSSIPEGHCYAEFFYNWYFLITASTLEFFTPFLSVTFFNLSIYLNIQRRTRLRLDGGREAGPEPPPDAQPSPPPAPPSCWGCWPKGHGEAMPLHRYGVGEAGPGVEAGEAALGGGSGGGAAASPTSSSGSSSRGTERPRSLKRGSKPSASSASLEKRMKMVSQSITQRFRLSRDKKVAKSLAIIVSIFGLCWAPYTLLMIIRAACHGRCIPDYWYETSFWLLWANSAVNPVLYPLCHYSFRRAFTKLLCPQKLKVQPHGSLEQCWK
- Experiment Summary: In vitro binding affinity for rat histamine H3 receptor using [3H]N-alpha-methylhistamine
Reported Property: Ki (nM)
One number for each entry, in nM.

Look over these answered cases.
>  <Molecule Smiles>
C[C@@H]1CCCN1CCc1cc2cc(CNc3cnccn3)ccc2o1

>  <Assayed Target>
UniProt:Q9QYN8

>  <Scale Unit>
nM

>  <Measured Value>
0.8

$$$$
>  <Molecule Smiles>
C[C@@H]1CCCN1CCc1cc2cc(CNc3ncccc3C#N)ccc2o1

>  <Assayed Target>
UniProt:Q9QYN8

>  <Scale Unit>
nM

>  <Measured Value>
1.92

$$$$

Param item = C[C@@H]1CCCN1CCc1cc2cc(Nc3ccc([N+](=O)[O-])cn3)ccc2o1 ; retrieve measured Ki.
0.11

###

Exercise: for every item that follows, state its recorded half-life.
- Experiment Summary: Terminal half life upon p.o. dose of 1 mg/kg in rats
- Type: ADME, organism-based
- Parameters: dose 1 mg/kg, route oral
- Test Conditions: rat, in vivo, po
Answers are plain numbers, in h.

>  <Molecule Smiles>
C[C@@H]1CCCN1CCc1cc2cc(-c3ccc(C#N)cc3)ccc2o1

>  <Scale Unit>
h

>  <half-life>
6.7

$$$$
>  <Molecule Smiles>
CCc1cnc(Nc2ccc3oc(CCN4CCC[C@H]4C)cc3c2)nc1

>  <Scale Unit>
h

>  <half-life>
4.8

$$$$

Next compound, please.
Param item = C[C@@H]1CCCN1CCc1cc2cc(CNc3ncccn3)ccc2o1 ; retrieve measured half-life.
1.7

###

- Assayed Target: UniProtKB Q9QYN8
Exercise: for every item that follows, state its recorded Ki.
Phrase the answer as number then unit, nothing more needed.

Look over these answered cases.
>  <Molecule Smiles>
CCc1cnc(NCc2ccc3oc(CCN4CCC[C@H]4C)cc3c2)nc1

>  <Measured Value>
0.58 nM

$$$$
>  <Molecule Smiles>
C[C@@H]1CCCN1CCc1cc2cc(CNc3ccc(C#N)cn3)ccc2o1

>  <Measured Value>
1.42 nM

$$$$
>  <Molecule Smiles>
C[C@@H]1CCCN1CCc1cc2cc(CNc3ccc(C(=O)C(F)(F)F)cc3)ccc2o1

>  <Measured Value>
2.36 nM

$$$$
>  <Molecule Smiles>
C[C@@H]1CCCN1CCc1cc2cc(Nc3cnccn3)ccc2o1

>  <Measured Value>
0.38 nM

$$$$
>  <Molecule Smiles>
C[C@@H]1CCCN1CCc1cc2cc(CNc3nccnc3C#N)ccc2o1

>  <Measured Value>
3.96 nM

$$$$

Each compound below has a recorded value; state its Ki.
1. C[C@@H]1CCCN1CCc1cc2cc(Nc3ccc(C(F)(F)F)cn3)ccc2o1
2. C[C@@H]1CCCN1CCc1cc2cc(CNc3ncc([N+](=O)[O-])s3)ccc2o1
3. C[C@@H]1CCCN1CCc1cc2cc(CNc3ncc([N+](=O)[O-])cc3[N+](=O)[O-])ccc2o1
4. C[C@@H]1CCCN1CCc1cc2cc(Nc3cccc(C#N)c3)ccc2o1
5. C[C@@H]1CCCN1CCc1cc2cc(CNc3ncccc3[N+](=O)[O-])ccc2o1

1: 2.76 nM; 2: 0.68 nM; 3: 2.88 nM; 4: 1.47 nM; 5: 2.71 nM
